Ref: ChEMBL document CHEMBL4828769

- EXPERIMENTAL_PROTOCOL: Oral bioavailability in mouse at 10 mg/kg
- Type: ADME, organism-based
- CONDITION_DETAILS: in vivo
ENDPOINT_LABEL: bioavailability (%)
Respond with the bare value in %.

Input CCOC(=O)C1=C(NN2CCN(CC(F)(F)F)CC2)O/C(=C\c2c[nH]c3ncccc23)C1=O . Output bioavailability: 30.6

###

- EXPERIMENTAL_PROTOCOL: Tmax in dog at 2 mg/kg, po
- Type: ADME, organism-based, Canis lupus familiaris
- CONDITION_DETAILS: in vivo
ENDPOINT_LABEL: Tmax (h)
Respond with the bare value in h.

Input CCOC(=O)C1=C(NN2CCN(CC(F)(F)F)CC2)O/C(=C\c2c[nH]c3ncccc23)C1=O . Output Tmax: 2.67
